Tested on: SK-MEL-28 melanoma
measurement_notes: NCI-60 one-dose screen, 48 h (100 = growth as untreated, 0 = no growth, -100 = all killed)
condition_description: 10 µM unless noted
Compounds without any hit were thinned out: in the full panel of roughly 83,000, 20% have a hit.
Listed next: entries and their corresponding growth.
assay_readout: growth (%)

[
  {
    "compound": "C[C@@H]1C[C@@]2(C)[C@@H](CC[C@@H]3[C@@H]2CC[C@]2(C)C(=O)CC[C@@H]32)CC1=O",
    "assay_readout": "growth",
    "experimental_result": 76.7
  },
  {
    "compound": "CN1CC(=O)N(O)C1(C)c1cccnc1 (stereo not drawn)",
    "assay_readout": "growth",
    "experimental_result": 103
  },
  {
    "compound": "C=C1[C@@H](C)[C@H]2[C@H](Cc3ccccc3)NC(=O)[C@]23[C@@H](O)/C=C/[C@@](C)(O)C(=O)[C@@H](C)C/C=C/[C@H]3[C@@H]1O",
    "assay_readout": "growth",
    "experimental_result": 67.1
  },
  {
    "compound": "Cc1cc(N(CCCl)CCCl)ccc1C=Nc1ccc(-c2csc(Cc3ccccc3)n2)cc1",
    "assay_readout": "growth",
    "experimental_result": 90.5
  },
  {
    "compound": "CC[C@H](C)[C@H](NC(=O)C12CC(NC(C)=O)(C1)C2)C(=O)N(C)[C@H](C[C@@H](OC(C)=O)c1nc(C(=O)N[C@@H](Cc2ccccc2)C[C@H](C)C(=O)OC)cs1)C(C)C",
    "assay_readout": "growth",
    "experimental_result": 61
  },
  {
    "compound": "CC(C)CCC(=O)O[C@H]1CC[C@H]2[C@@H]3CCC4=CC(=O)CC[C@]4(C)[C@H]3CC[C@]12C",
    "assay_readout": "growth",
    "experimental_result": 99.8
  },
  {
    "compound": "ClCCN(CCCl)c1nc(Cl)c(C2CC(c3ccccc3)=NN2c2cc(Cl)cc(Cl)c2)s1 (stereo not drawn)",
    "assay_readout": "growth",
    "experimental_result": 106
  },
  {
    "compound": "CCn1c2ccccc2c2cc(C(=O)c3cccc4c3CCCN4)ccc21",
    "assay_readout": "growth",
    "experimental_result": 103
  }
]

* * *

System: SN12C renal
measurement_notes: NCI-60 one-dose screen, 48 h (100 = growth as untreated, 0 = no growth, -100 = all killed)
condition_description: 10 µM unless noted
About 83,000 compounds went through this panel and 20% of them were active in at least one assay; those are over-represented in the sample as a whole.
Use Yes when the recorded growth is no lower than 40%; use No when it is lower.

[
  {
    "compound": "COc1ccc2c(c1)c(-c1nc(-c3c[nH]c4ncccc34)cs1)cn2CCN1CCOCC1",
    "assigned_label": "Yes"
  },
  {
    "compound": "CCOC(=O)N1CC1",
    "assigned_label": "Yes"
  },
  {
    "compound": "C1CCC([PH+](C2CCCCC2)C2CCCCC2[PH+](C2CCCCC2)C2CCCCC2)CC1.O=C(C1[CH-]CCCC1)C1CCCC[N-]1.[Au] (stereo not drawn)",
    "assigned_label": "No"
  },
  {
    "compound": "Oc1c(O)c(Cl)c(Cl)c(Cl)c1Cl",
    "assigned_label": "No"
  },
  {
    "compound": "C[C@]12CC[C@H]3[C@@H](CC[C@]4(O)C[C@@H](O[C@@H]5O[C@H](CO)[C@@H](O[C@@H]6OC[C@@H](O)[C@H](O)[C@H]6O)[C@H](O)[C@H]5O)CC[C@]34C=O)[C@@]1(O)CC[C@@H]2C1=CC(=O)OC1",
    "assigned_label": "No"
  },
  {
    "compound": "Cc1cc(-c2nc3cc(F)ccc3[se]2)cc(F)c1N",
    "assigned_label": "Yes"
  },
  {
    "compound": "C=CCCCCCCCCC(=O)[O-].C=CCCCCCCCCC(=O)[O-].[Zn+2]",
    "assigned_label": "Yes"
  },
  {
    "compound": "COC(=O)[C@@H](C)C[C@H](Cc1ccccc1)NC(=O)c1csc(CC[C@H](C(C)C)N(C)C(=O)[C@@H](NC(=O)[C@H]2CCCCN2C)C(C)C)n1",
    "assigned_label": "No"
  }
]

* * *

System: SK-MEL-5 melanoma
measurement_notes: NCI-60 one-dose screen, 48 h (100 = growth as untreated, 0 = no growth, -100 = all killed)
condition_description: 10 µM unless noted
This is part of a sample that, as a whole, favours compounds with a hit. Of some 83,000 tested, about 20% had one in any assay.
Listed next: entries and their corresponding growth.

[
  {
    "compound": "Cc1cc(NC(=O)NCc2ccc(N3C(N)=NC(N)=NC3(C)C)cc2)ccc1S(=O)(=O)F",
    "growth / %": 21
  },
  {
    "compound": "COC(=O)[C@@H](C)C[C@H](Cc1cn(C)c2ccccc12)NC(=O)c1csc([C@@H](C[C@H](C(C)C)N(C)C(=O)[C@@H](NC(=O)[C@H]2CCCCN2C)C(C)C)OC(C)=O)n1",
    "growth / %": -38.4
  },
  {
    "compound": "CC(C)(NC(=O)O[C@@H]1CN2CCC1CC2)c1csc(-c2ccc(F)cc2)n1",
    "growth / %": 99.2
  },
  {
    "compound": "CC(=O)O[C@@H]1CC[C@]2(C)[C@H]3CC[C@]4(C)C(=O)CC[C@H]4[C@@H]3C[C@@H]3SC(N)=N[C@@]32C1",
    "growth / %": 32.5
  },
  {
    "compound": "C/C=C(\\C)C(=O)O[C@@H]1C(O)[C@H]2OC(COC(=O)CCC(=O)CCCCCC[C@H](CCCCC)O[C@@H]3OC(C)[C@H](OC(C)=O)C(O)[C@H]3O2)[C@H]1OC(=O)/C=C/c1ccccc1 (stereo partly specified)",
    "growth / %": -79.1
  },
  {
    "compound": "C=C1[C@@H](C)[C@H]2[C@H](Cc3ccccc3)NC(=O)[C@]23[C@@H](O)/C=C/[C@@](C)(O)C(=O)[C@@H](C)C/C=C/[C@H]3[C@@H]1O",
    "growth / %": 77.6
  }
]

* * *

Test system: CCRF-CEM leukemia
measurement_notes: NCI-60 one-dose screen, 48 h (100 = growth as untreated, 0 = no growth, -100 = all killed)
condition_description: 10 µM unless noted
Compounds without any hit were thinned out: in the full panel of roughly 83,000, 20% have a hit.

[
  {
    "molecule": "C/C(=C\\c1cc(C(F)(F)F)nn1CCNC(=O)OC(C)(C)C)[C@@H]1C[C@@H]2O[C@]2(C)CCC[C@H](C)[C@H](O)[C@@H](C)C(=O)C(C)(C)[C@@H](O)CC(=O)O1",
    "study_system": "CCRF-CEM leukemia",
    "growth / %": 67.2
  },
  {
    "molecule": "CC(C)OC(=O)[C@H](C)NP(=O)(Oc1ccccc1)C1CCCN(O)C1=O (stereo partly drawn)",
    "study_system": "CCRF-CEM leukemia",
    "growth / %": 91.3
  },
  {
    "molecule": "O=C1N[C@@H]2[C@@H](O)[C@@H](O)[C@H](O)C[C@H]2c2cc3c(c(O)c21)OCO3",
    "study_system": "CCRF-CEM leukemia",
    "growth / %": 2.84
  },
  {
    "molecule": "Clc1ccc(N2COOC3(OOC2)C2CC4CC(C2)CC3C4)cc1",
    "study_system": "CCRF-CEM leukemia",
    "growth / %": -50.3
  },
  {
    "molecule": "Cc1ccc(C(=O)NCCCOc2ccc(N)cc2Cl)cc1S(=O)(=O)F",
    "study_system": "CCRF-CEM leukemia",
    "growth / %": 88.7
  },
  {
    "molecule": "CC(=O)O[C@H]1CC[C@@]2(C)C(=CC[C@H]3[C@@H]4C[C@@H](N5CC5)[C@H](C(C)=O)[C@@]4(C)CC[C@@H]32)C1",
    "study_system": "CCRF-CEM leukemia",
    "growth / %": 78
  },
  {
    "molecule": "COC(=O)CC[C@H](Cc1ccccc1)NC(=O)c1csc([C@@H](C[C@H](C(C)C)N(C)C(=O)[C@@H](NC(=O)[C@H]2CCCCN2C)C(C)C)OC(C)=O)n1",
    "study_system": "CCRF-CEM leukemia",
    "growth / %": 19.8
  },
  {
    "molecule": "COc1ccc(/C=C\\c2cc(OC)c(OC)c(OC)c2)cc1NS(=O)(=O)c1ccc(Cl)cc1",
    "study_system": "CCRF-CEM leukemia",
    "growth / %": 78
  },
  {
    "molecule": "CCOC(=O)C(Cc1ccc(N(CCCl)CCCl)cc1)NC(=O)C(CC(C)C)NC(C)=O (stereo not drawn)",
    "study_system": "CCRF-CEM leukemia",
    "growth / %": 12.3
  },
  {
    "molecule": "CC[C@H](C)[C@H](NC(=O)c1nccn1C)C(=O)N(C)[C@H](C[C@@H](OC(C)=O)c1nc(C(=O)N[C@@H](Cc2ccccc2)C[C@H](C)C(=O)OC)cs1)C(C)C",
    "study_system": "CCRF-CEM leukemia",
    "growth / %": 15.9
  },
  {
    "molecule": "COc1ccc(/C=C/c2cc(OC)c(OC)c(OC)c2)cc1NC(=O)/C=C/c1ccc(F)cc1",
    "study_system": "CCRF-CEM leukemia",
    "growth / %": 11
  },
  {
    "molecule": "Cc1ccc(N2COOC3(OOC2)C2CC4CC(C2)CC3C4)cc1",
    "study_system": "CCRF-CEM leukemia",
    "growth / %": 107
  },
  {
    "molecule": "CCCCC1(CCC)C(=O)NC(=S)NC1=O",
    "study_system": "CCRF-CEM leukemia",
    "growth / %": 115
  },
  {
    "molecule": "CC1(C)N=C(N)N=C(N)N1c1ccc(OCCCNC(=O)Nc2ccc(S(=O)(=O)F)cc2)c(Cl)c1",
    "study_system": "CCRF-CEM leukemia",
    "growth / %": 24.2
  },
  {
    "molecule": "CC12CCC3C(CCC4Cc5[nH]c6ccccc6c5CC43C)C1CCC2O (stereo not drawn)",
    "study_system": "CCRF-CEM leukemia",
    "growth / %": 8.61
  },
  {
    "molecule": "Cc1ccc(S(=O)(=O)C(Cl)(Cl)Cl)cc1",
    "study_system": "CCRF-CEM leukemia",
    "growth / %": 82.7
  },
  {
    "molecule": "NC(=Nc1ccccc1)N[N+](=O)[O-]",
    "study_system": "CCRF-CEM leukemia",
    "growth / %": 52.1
  },
  {
    "molecule": "CC(=O)C(c1c(O)c2ccccc2oc1=O)c1cc(=O)oc2c1ccc1ccccc12 (stereo not drawn)",
    "study_system": "CCRF-CEM leukemia",
    "growth / %": 94.5
  }
]

Values compiled from PubChem BioAssay (NCI).
